I'd appreciate it if you could supply pIC50 values for the items below.
- system_under_test: human cathepsin L (Homo sapiens, UniProt P07711)
- Construct: purchased R&D Systems
- method_description: cathepsin L assay
- Assay type: biochemical
- measurement_context: 10 pM human cathepsin L, Z-FR-AMC 2 μM, class symbols
pIC50: −log10 of the molar value.

compound: COc1cccc2[nH]c(C(=O)N3C[C@@H]4CCC[C@@H]4[C@H]3C(=O)N[C@@H](C[C@@H]3CCNC3=O)C(=O)COCc3ccccc3)cc12 [Compound 27A]
pIC50: ≤ 5.00
--
compound: C=CC12CN(C(=O)c3cc4c(OC)cccc4[nH]3)C(C(=O)N[C@@H](C[C@@H]3CCNC3=O)C(=O)C(=O)NC3CC3)(C1)C2
pIC50: ≤ 5.00
--
compound: O=C1NCC[C@H]1C[C@H](NC(=O)[C@@H]1[C@H]2CCC[C@H]2CN1C(=O)c1cc2c(Oc3ccccc3)cccc2[nH]1)C(=O)CO
pIC50: ≤ 5.00

State recorded pIC50 for all listed compounds.
1. O=C(NCc1ccccc1)C(=O)[C@H](C[C@@H]1CCNC1=O)NC(=O)[C@@H]1[C@H]2CCC[C@H]2CN1C(=O)c1nc2ccccc2[nH]1
2. COc1cccc2[nH]c(C(=O)N3C[C@@H]4CCC[C@@H]4[C@H]3C(=O)N[C@@H](CC3CC(C)(C)NC3=O)C(=O)CO)cc12 (relative stereo)
3. COc1cccc2[nH]c(C(=O)N3C[C@@H]4CCC[C@@H]4[C@H]3C(=O)N[C@@H](C[C@@H]3CCNC3=O)C(=O)C(=O)NC3CCOCC3)cc12
4. CSc1cccc2[nH]c(C(=O)N3C[C@@H]4CCC[C@@H]4[C@H]3C(=O)N[C@@H](C[C@@H]3CCNC3=O)C(=O)CO)cc12
5. O=C(NC1CC1)C(=O)[C@H](C[C@@H]1CCNC1=O)NC(=O)[C@@H]1CC2(CCN1C(=O)c1cc3ccccc3o1)CC2
6. CCOC(=O)c1cc(C(=O)N2C[C@@H]3CCC[C@@H]3[C@H]2C(=O)N[C@@H](C[C@@H]2CCNC2=O)C(=O)CO)[nH]c1C
7. O=C1NCC[C@H]1C[C@H](NC(=O)[C@@H]1[C@H]2CCC[C@H]2CN1C(=O)c1cc2c(Cl)ccc(C(F)(F)F)c2[nH]1)C(=O)CO
8. O=C(NCc1ccccc1)C(=O)[C@H](Cc1cc[nH]n1)NC(=O)[C@@H]1CC2(CC2)CN1C(=O)c1cc2ccccc2[nH]1

Completion:
≤ 5.00
≤ 5.00
≤ 5.00
≤ 5.00
5.00 to 6.00
≤ 5.00
≤ 5.00
5.00 to 6.00

====

- Test system: SARS-CoV-2-GHB-03021/2020
- method_description: microbe, parasite or virus in culture
- Type: cell-based
- measurement_context: Severe acute respiratory syndrome coronavirus 2, Vero C1008, 96 h; read-out: VeroE6 + CP (EC50)
quantity_kind: EC50

Illustrative cases are given below, each with its answer.
molecule: COc1cccc2[nH]c(C(=O)N3C[C@@H]4CCC[C@@H]4[C@H]3C(=O)N[C@@H](C[C@@H]3CCCNC3=O)C(=O)CO)cc12 [Compound 41]
assay_value: 1 to 10 µM
--
molecule: O=C1NCC[C@H]1C[C@H](NC(=O)[C@@H]1[C@H]2CCC[C@H]2CN1C(=O)c1cc2c(=O)[nH]ccc2[nH]1)C(=O)CO [Compound 76]
assay_value: 10 to 100 µM

Could you now consider this next molecule?
Prompt: Query the reported EC50 for SARS-CoV-2-GHB-03021/2020; item: O=C(NC1CC1)C(=O)[C@H](C[C@@H]1CCNC1=O)NC(=O)[C@@H]1CC2(CCN1C(=O)c1cc3c(Cl)cc(Cl)cc3[nH]1)CC2 [Compound 141]
Completion: > 50 µM

====

Kindly supply the reported pIC50 values for the records listed here.
- system_under_test: 3CLpro (Severe acute respiratory syndrome coronavirus 2)
- method_description: SARS-CoV-2 3CLpro protease assay (duplex, SAMDI-MS)
- Assay type: biochemical
- Design: For the duplex assay, 3CLpro and HRV3C was added
- measurement_context: 3CLpro, 30 mins preincubation, class symbols; read-out: SARS-Cov-2 IC50
pIC50: −log10 of the molar value.

List the reported pIC50 of each molecule below.
1. O=C(NC1CC1)C(=O)C(CC1CC2(CC2)NC1=O)NC(=O)[C@@H]1[C@H]2CCC[C@H]2CN1C(=O)c1cc2c(Cl)cc(Cl)cc2[nH]1 (single isomer, unassigned) [Compound 116A]
2. N#C[C@H](C[C@@H]1CCNC1=O)NC(=O)[C@@H]1[C@H]2CCC[C@H]2CN1C(=O)c1cc2c(Cl)cc(Cl)cc2[nH]1
3. COc1nccc2[nH]c(C(=O)N3C[C@@H]4CCC[C@@H]4[C@H]3C(=O)N[C@@H](C[C@@H]3CCNC3=O)C(=O)CO)cc12
4. O=C1NCC[C@H]1C[C@H](NC(=O)[C@@H]1[C@H]2CCC[C@H]2CN1C(=O)c1cc2c(Oc3ccccc3)cccc2[nH]1)C(=O)CO
5. CC(C)NC(=O)C(=O)C(C[C@@H]1CCCNC1=O)NC(=O)[C@@H]1[C@H]2CCC[C@H]2CN1C(=O)c1cc2ccccc2[nH]1 (stereo partly drawn)
6. COc1cccc2[nH]c(C(=O)N3C[C@@H]4CCC[C@@H]4[C@H]3C(=O)N[C@@H](C[C@@H]3CCNC3=O)C(=O)COCc3ccccc3)cc12 [Compound 27A]

Completion:
6.70 to 7.70
5.70 to 6.70
> 7.70
6.70 to 7.70
6.70 to 7.70
6.70 to 7.70

====

- System: SARS-CoV-2-GHB-03021/2020
- method_description: microbe, parasite or virus in culture
- Assay type: cell-based
- measurement_context: Severe acute respiratory syndrome coronavirus 2, Vero C1008, 96 h; read-out: VeroE6 + CP (EC50)
pEC50: −log10 of the molar value.
quantity_kind: pEC50

Some solved cases for reference:
molecule: O=C(NCc1ccccc1)C(=O)C(C[C@@H]1CCNC1=O)NC(=O)[C@@H]1CC2(CC2)CN1C(=O)c1cc2ccccc2[nH]1 (stereo partly drawn)
quantity_kind: pEC50
assay_value: 5.00 to 6.00

molecule: CC1(C)CCN(C(=O)c2cc3ccccc3[nH]2)[C@H](C(=O)NC(C[C@@H]2CCNC2=O)C(=O)C(=O)NCc2ccccc2)C1 (stereo partly drawn)
quantity_kind: pEC50
assay_value: 4.00 to 5.00

// for each molecule in input: emit pEC50
1. COc1cccc2[nH]c(C(=O)N3C[C@@H]4CCC[C@@H]4[C@H]3C(=O)NC(CN3CCCC3=O)C(=O)C(=O)NC3CC3)cc12 (single isomer, unassigned) [Compound 113A]
2. O=C1NCC[C@H]1C[C@H](NC(=O)[C@@H]1[C@H]2CCC[C@H]2CN1C(=O)c1cc2c(OC(F)F)cccc2[nH]1)C(=O)CO
3. O=C1NCC[C@H]1C[C@H](NC(=O)[C@@H]1[C@H]2CCC[C@H]2CN1C(=O)c1cc2c(Oc3ccccc3)cccc2[nH]1)C(=O)CO
4. C=CC12CN(C(=O)c3cc4c(OC)cccc4[nH]3)C(C(=O)N[C@@H](C[C@@H]3CCNC3=O)C(=O)C(=O)NC3CC3)(C1)C2

Completion:
["4.00 to 5.00", "> 6.00", "5.00 to 6.00", "4.00 to 5.00"]

====

- system_under_test: human cathepsin L (Homo sapiens, UniProt P07711)
- Construct: purchased R&D Systems
- method_description: cathepsin L assay
- Type: biochemical
- measurement_context: 10 pM human cathepsin L, Z-FR-AMC 2 μM, class symbols
quantity_kind: IC50

compound: C#C[C@H](C[C@@H]1CCNC1=O)NC(=O)[C@@H]1[C@H]2CCC[C@H]2CN1C(=O)c1cc2c(Cl)ccc(Cl)c2[nH]1 [Compound 177]
assay_value: ≥ 10 µM
//
compound: O=C1NCC[C@H]1C[C@H](NC(=O)[C@@H]1[C@H]2CCC[C@H]2CN1C(=O)c1cc2c3c(ccc2[nH]1)CCO3)C(=O)CO [Compound 108]
assay_value: ≥ 10 µM
//
compound: N#Cc1cccc2[nH]c(C(=O)N3C[C@@H]4CCC[C@@H]4[C@H]3C(=O)NC(C[C@@H]3CCNC3=O)C(=O)COCc3ccccc3)cc12 (stereo partly drawn) [Compound 66A]
assay_value: ≥ 10 µM
//
compound: COc1cccc2[nH]c(C(=O)N3C[C@@H]4CCC[C@@H]4[C@H]3C(=O)N[C@H](CN3CCCC3=O)C(=O)C(=O)NC3CC3)cc12 (single isomer, unassigned) [Compound 113B]
assay_value: ≥ 10 µM
//
compound: O=C1NCC[C@H]1C[C@H](NC(=O)[C@@H]1[C@H]2CCC[C@H]2CN1C(=O)c1cc2c(=O)[nH]ccc2[nH]1)C(=O)CO [Compound 76]
assay_value: ≥ 10 µM

Answer for every listed entry: what is its IC50? The entries follow.
1. O=C(NC1CC1)C(=O)[C@H](C[C@@H]1CCNC1=O)NC(=O)[C@@H]1CC2(CCN1C(=O)c1cc3c(Cl)cc(Cl)cc3[nH]1)CC2 [Compound 141]
2. Cn1ccc2[nH]c(C(=O)N3C[C@@H]4CCC[C@@H]4[C@H]3C(=O)N[C@@H](C[C@@H]3CCNC3=O)C(=O)CO)cc2c1=O [Compound 77]
3. O=C1NCC[C@H]1C[C@H](NC(=O)[C@@H]1[C@H]2CCC[C@H]2CN1C(=O)c1nc2c(Cl)ccc(Cl)c2[nH]1)C(=O)CO [Compound 139]
4. O=C(NCc1ccccc1)C(=O)C(C[C@@H]1CCNC1=O)NC(=O)[C@@H]1[C@H]2CCC[C@H]2CN1C(=O)c1cc2ccccc2[nH]1 (stereo partly drawn) [Compound 2]

Completion:
1: 0.1 to 1 µM; 2: ≥ 10 µM; 3: ≥ 10 µM; 4: 1 to 10 µM

Give me IC50 for each of these compounds, listed below.
1. CNc1cccc2[nH]c(C(=O)N3C[C@@H]4CCC[C@@H]4[C@H]3C(=O)N[C@@H](C[C@@H]3CCNC3=O)C(=O)CO)cc12 [Compound 153]
2. O=C1NCC[C@H]1C[C@H](NC(=O)[C@@H]1[C@H]2CCC[C@H]2CN1C(=O)c1cc2c(OC(F)F)cccc2[nH]1)C(=O)CO [Compound 87]
3. O=C1NCC[C@H]1C[C@H](NC(=O)[C@@H]1[C@H]2CCC[C@H]2CN1C(=O)c1cc2c([nH]1)CCCC2)C(=O)CO [Compound 83]
4. O=C1NCC[C@H]1C[C@H](NC(=O)[C@@H]1[C@H]2CCC[C@H]2CN1C(=O)c1cc2c(Cl)cc(Oc3ccccc3)cc2[nH]1)C(=O)CO [Compound 129]
5. O=C(NC1CC1)C(=O)[C@H](C[C@@H]1CCNC1=O)NC(=O)[C@@H]1CC2(CCN1C(=O)c1cc3ccccc3[nH]1)CC2 [Compound 140]
6. COc1ccc(Cl)c2[nH]c(C(=O)N3C[C@@H]4CCC[C@@H]4[C@H]3C(=O)N[C@@H](C[C@@H]3CCNC3=O)C(=O)CO)cc12 [Compound 89]
7. O=C1NCC[C@H]1C[C@H](NC(=O)[C@@H]1[C@H]2CCC[C@H]2CN1C(=O)c1cc2c(OC(F)(F)F)cccc2[nH]1)C(=O)CO [Compound 64]
8. Cc1cccc2[nH]c(C(=O)N3CCC4(CC4)C[C@H]3C(=O)N[C@@H](C[C@@H]3CCNC3=O)C(=O)C(=O)NC3CC3)cc12 [Compound 169]

Completion:
1. ≥ 10 µM
2. ≥ 10 µM
3. ≥ 10 µM
4. ≥ 10 µM
5. ≥ 10 µM
6. ≥ 10 µM
7. ≥ 10 µM
8. 1 to 10 µM

Please supply IC50 for each of the following items, keeping them in order.
1. COc1cccc2[nH]c(C(=O)N3C[C@@H]4CCC[C@@H]4[C@H]3C(=O)N[C@H](C=O)C[C@@H]3CCNC3=O)cc12 [Compound 14A]
2. O=C1NCC[C@H]1C[C@H](NC(=O)[C@@H]1[C@H]2CCC[C@H]2CN1C(=O)c1cc2c(Cl)cccc2[nH]1)C(=O)CO [Compound 60]
3. COc1cccc2[nH]c(C(=O)N3C[C@@H]4CCC[C@@H]4[C@H]3C(=O)N[C@@H](C[C@@H]3CCNC3=O)C(=O)C(=O)N(C)C)cc12 [Compound 110]
4. COc1c(Cl)ccc2[nH]c(C(=O)N3C[C@@H]4CCC[C@@H]4[C@H]3C(=O)N[C@@H](C[C@@H]3CCNC3=O)C(=O)CO)cc12 [Compound 68]
5. O=C1NCC[C@H]1C[C@H](NC(=O)[C@@H]1[C@H]2CCC[C@H]2CN1C(=O)c1cc(S(=O)(=O)c2ccccc2)c[nH]1)C(=O)CO [Compound 82]
6. COc1ccc(F)c2[nH]c(C(=O)N3C[C@@H]4CCC[C@@H]4[C@H]3C(=O)N[C@@H](C[C@@H]3CCNC3=O)C(=O)CO)cc12 [Compound 65]

Completion:
1: ≥ 10 µM; 2: ≥ 10 µM; 3: ≥ 10 µM; 4: ≥ 10 µM; 5: ≥ 10 µM; 6: ≥ 10 µM

Prompt: Suppose we examine the compound COc1ccc(F)c2[nH]c(C(=O)N3C[C@@H]4CCC[C@@H]4[C@H]3C(=O)N[C@H](C#N)C[C@@H]3CCNC3=O)cc12 [Compound 189] ; what IC50 value has been reported?
Completion: ≥ 10 µM
